Data origin, for the record: patent US20230233569A1

Assign pIC50 to each entry below.
Biological target: NRAS G12C (Homo sapiens, UniProt P01111+P62937, G12C)
Sequence (P01111 whole entry G12C): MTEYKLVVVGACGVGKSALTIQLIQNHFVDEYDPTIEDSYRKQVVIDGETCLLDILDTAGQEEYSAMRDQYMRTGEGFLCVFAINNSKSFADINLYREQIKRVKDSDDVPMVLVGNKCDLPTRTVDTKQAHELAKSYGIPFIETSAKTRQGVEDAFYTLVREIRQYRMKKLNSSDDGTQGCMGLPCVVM
Sequence (P62937 whole entry): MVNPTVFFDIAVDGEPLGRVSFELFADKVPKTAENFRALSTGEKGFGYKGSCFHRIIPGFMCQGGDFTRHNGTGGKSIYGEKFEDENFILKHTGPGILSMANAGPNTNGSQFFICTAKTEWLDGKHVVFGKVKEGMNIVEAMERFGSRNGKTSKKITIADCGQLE
Assay: Disruption of BRAF RBD interaction with Ras (FRET / MOA assay, with Cyclophilin A)
Type: biochemical
Conditions: NRAS G12C FRET data IC50, NRAS G12C
pIC50: −log10 of the molar value.

# Compound structure, pIC50
data = [
    ("CCn1c(-c2cccnc2[C@H](C)OC)c2c3cc(ccc31)-c1csc(n1)C[C@H](NC(=O)N1CCCC1)C(=O)N1CCC[C@H](N1)C(=O)OCC(C)(C)C2", "7.00 to 8.00"),
    ("CCn1c(-c2cnccc2COC)c2c3cc(ccc31)-c1cc(O)cc(c1)C[C@H](NC(=O)[C@H](C(C)C)N(C)C(=O)[C@H]1CCN(C=O)C1)C(=O)N1CCC[C@H](N1)C(=O)OCC(C)(C)C2", "6.00 to 7.00"),
]

Task: Fill in the blank: the reported pIC50 of "CCn1c(-c2cccnc2[C@H](C)OC)c2c3cc(ccc31)-c1csc(n1)C[C@H](NC(=O)[C@H](C(C)C)N(C)C(=O)OC)C(=O)N1CCC[C@H](N1)C(=O)OCC(C)(C)C2" is ____.
Output: 6.00 to 7.00
